- measurement-target: Peroxisome proliferator-activated receptor gamma (Homo sapiens)
- experiment: PPARgamma agonists recruiting SRC-3 coactivator, primary screen, biochemical (AID 731);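 further: 0% = DMSO and 100% = reference agonist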
- experimental-parameters: biochemical PPARgamma/SRC-3 coactivator recruitment assay; at 8 µM; stronger effect = higher value
Hit rate of the full screen: of about 200,000 compounds, about 520 (0.26%) were called active. Only a selection was taken, and actives are over-represented in it overall.
value-type: activation (%)
Answers are plain numbers, in %.

Example compounds with recorded activation:
{"columns": ["smiles-input", "value-observed"],
 "data": [
  ["COc1cc(NS(=O)(=O)c2ccc(NC(=O)c3ccc(S(=O)(=O)N4CCCCC4)cc3)cc2)ncn1", -0.22],
  ["Cc1ccc(C(=O)N/C(=C\\c2ccco2)C(=O)N2CCSCC2)cc1C", -0.93],
  ["COCCn1c(Cc2cccn2C)nnc1SCC(=O)Nc1nccs1", 4.15]
]}

Would you be so kind as to report activation for each listed record?
1. COc1ccc(-c2nnco2)cc1OC
2. O=C(CSc1c2c(nc3ccc(Cl)cc13)CCCC2)NCc1ccco1
3. CCc1nnc(NC(=O)[C@@H](NC(=O)c2cccc(C)c2)C(C)C)s1
4. O=C(/C=C/c1ccc(Cl)cc1Cl)NCc1ccco1
5. COc1ccc2c(Cl)c(-c3nnco3)sc2c1
6. C=CCC(CC=C)(C(N)=O)c1ccccc1
7. COc1ccc2c(Cl)c(C(=O)NCc3ccco3)sc2c1

Resp:
1. -2.7
2. 31.6
3. -2.92
4. -0.09
5. 33.2
6. -2.8
7. -2.31

Would you be so kind as to report activation for each listed record?
1. CC(C)(C)c1ccc(/C=C/C(=O)Nc2ncccn2)cc1
2. O=C(NCc1ccco1)c1cc(-c2cccnc2)nc2ccc(Cl)cc12

Resp:
-0.41
7.42
